system_name: Cannabinoid receptor 2 (Homo sapiens, UniProt P34972)
Sequence (P34972 whole entry): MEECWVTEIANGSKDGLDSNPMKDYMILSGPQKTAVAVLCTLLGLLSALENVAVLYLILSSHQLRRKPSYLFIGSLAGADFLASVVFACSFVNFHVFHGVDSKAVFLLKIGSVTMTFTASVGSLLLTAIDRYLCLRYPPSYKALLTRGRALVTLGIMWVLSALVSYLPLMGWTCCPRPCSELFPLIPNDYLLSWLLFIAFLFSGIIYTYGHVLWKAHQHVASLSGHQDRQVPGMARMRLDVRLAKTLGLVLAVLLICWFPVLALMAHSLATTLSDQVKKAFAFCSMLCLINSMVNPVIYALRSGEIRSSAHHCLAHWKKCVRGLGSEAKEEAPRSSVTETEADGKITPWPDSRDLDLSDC
Consider the cut-off 60 nM. If the recorded Ki is strictly smaller, the label is Yes; if not, the label is No.

smiles_representation	cat
CCCCCCn1cc(C(=O)c2cccc3ccccc23)cc1-c1ccccc1	Yes
CCCCCn1cc(C(=O)c2cccc3ccccc23)cc1-c1ccc2ccccc2c1	No
CCCCn1cc(C(=O)c2cccc3ccccc23)cc1-c1ccccc1	Yes
CCCCCn1cc(C(=O)c2cccc3ccccc23)cc1-c1ccc(OC)cc1	Yes
CCCn1cc(C(=O)c2cccc3ccccc23)cc1-c1ccccc1	No
CCCCCn1cc(C(=O)c2cccc3ccccc23)cc1-c1ccccc1Cl	Yes
CCCCCn1cc(C(=O)c2cccc3ccccc23)cc1-c1ccc(CCCC)cc1	No
CCCCCn1cc(C(=O)c2cccc3ccccc23)cc1-c1ccccc1	Yes
CCCCCn1cc(C(=O)c2cccc3ccccc23)cc1-c1ccccc1C(F)(F)F	Yes
CCCCCCCn1cc(C(=O)c2cccc3ccccc23)cc1-c1ccccc1	No
CCCCCn1cc(C(=O)c2cccc3ccccc23)cc1-c1cccc(F)c1	Yes

---

Overview of recorded pKi for various compounds
system_name: Cannabinoid receptor 2 (Homo sapiens, UniProt P34972)
method_summary: Displacement of [3H]CP-55940 from human cloned CB2 receptor
pKi: −log10 of the molar value.

smiles_representation	pKi
CCCCCn1cc(C(=O)c2cccc3ccccc23)cc1-c1ccc(Cl)cc1	7.60
CCCCCn1cc(C(=O)c2cccc3ccccc23)cc1-c1cccc(OC)c1	7.64
CCCCCn1cc(C(=O)c2cccc3ccccc23)cc1-c1cccc(Cl)c1	7.80
CCCCCn1cc(C(=O)c2cccc3ccccc23)cc1-c1ccccc1CC	8.47
CCCCCn1cc(C(=O)c2cccc3ccccc23)cc1-c1cccc(C(F)(F)F)c1	7.15
CCCCCn1cc(C(=O)c2cccc3ccccc23)cc1-c1ccc(C)cc1	7.74
CCCCCn1cc(C(=O)c2cccc3ccccc23)cc1-c1cccc([N+](=O)[O-])c1	7.39

---

system_name: Cannabinoid receptor 2 (Homo sapiens, UniProt P34972)
Mark T only when Ki stays strictly below 20 nM. Values equal to the cut-off are F.

smiles_representation	cat
CCCCCn1cc(C(=O)c2cccc3ccccc23)cc1-c1ccccc1F	T
CCCCCn1cc(C(=O)c2cccc3ccccc23)cc1-c1ccc(C(F)(F)F)cc1	F
CCCCCn1cc(C(=O)c2cccc3ccccc23)cc1-c1ccccc1C	T
CCCCCn1cc(C(=O)c2cccc3ccccc23)cc1-c1cccc(C)c1	F
CCCCCn1cc(C(=O)c2cccc3ccccc23)cc1-c1ccc(F)cc1	F
CCCCCn1cc(C(=O)c2cccc3ccccc23)cc1-c1cccc2ccccc12	F
CCCCCn1cc(C(=O)c2cccc3ccccc23)cc1-c1cccnc1	F
CCCCCn1cc(C(=O)c2cccc3ccccc23)cc1-c1ccc(CC)cc1	F
CCCCCn1cc(C(=O)c2cccc3ccccc23)cc1-c1ccccc1CCCC	F
